Assay read-out IC50 on NAD-dependent protein deacetylase sirtuin-2 (Homo sapiens, UniProt Q8IXJ6); records merged from the literature.
Output spec: scalar in µM, unitless text.

Example entries and their recorded answers appear below.
CCn1c(=O)n(CCc2ccc(NC(=O)OC(C)(C)C)cc2)c(=O)c2[nH]c(SSc3nc4c([nH]3)c(=O)n(CCc3ccc(NC(=O)OC(C)(C)C)cc3)c(=O)n4CC)nc21
2.19
CCCNC(=S)CNC(=O)c1ccccc1Nc1cccc(OCCc2ccccc2)c1
8.47
CCCOc1c(Cl)cc(C(=O)NC(=S)Nc2ccc(NC(=O)CCCCN(C)C)cc2)cc1Cl.Cl
4.7
CCCNC(=O)CNC(=O)c1ccccc1Nc1cccc(OCCc2ccccc2)c1
4.04

So what IC50 did C[C@H](NC(=O)[C@H](CCCCNC(=O)CNC(=O)c1ccccc1Nc1ccccc1)NC(=O)OCc1ccccc1)C(N)=O get with NAD-dependent protein deacetylase sirtuin-2 (Homo sapiens, UniProt Q8IXJ6)?
1.84

Lab note: need IC50 for CCCn1c(=O)c2[nH]c(SSc3nc4c([nH]3)c(=O)n(CCC)c(=O)n4CCC)nc2n(CCC)c1=O on NAD-dependent protein deacetylase sirtuin-2 (Homo sapiens, UniProt Q8IXJ6), anyone have it?
1.19

Lab request: please report IC50 under test system NAD-dependent protein deacetylase sirtuin-2 (Homo sapiens, UniProt Q8IXJ6) for CCOc1c(F)cc(C(=O)NC(=S)Nc2ccc(NC(=O)CCCCN(C)C)cc2)cc1F.Cl
17.5
